Consider the following binders; for each one, report its koff.
study system: T1, SARS-CoV-2 spike RBD variant strain (SPD-C52Hn, Acro Biosystems, N501Y) (SARS-CoV-2, UniProt P0DTC2 319-537)
T1 construct: domain: RBD
measurement notes: BLI (Octet), biotinylated RBD on SA sensor, VHH as analyte, 1:1 fit
Field format: number, assumed s⁻¹, no unit text.

Record request: koff value, item Bacillus subtilis-derived VHH-COVE9 (VHH) VHH: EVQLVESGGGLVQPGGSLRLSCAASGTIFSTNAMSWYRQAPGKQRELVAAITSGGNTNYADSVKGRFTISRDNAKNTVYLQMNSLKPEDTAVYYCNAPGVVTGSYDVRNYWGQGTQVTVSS 0.00267

Cool, now Bacillus subtilis-derived VHH-COVE8 (VHH) VHH: EVQLVESGGGLVQPGGSLTLSCAASGQTFSSYNMAWFRQSPGKEREFVATISWGGGSTGYADSVKGRFTISRDHAKNTVYLQMKDLKPEDTGAYYCYLVGLFGIQASDYWGQGTQVTVSS 0.00159

Cool, now Bacillus subtilis-derived VHH-COVE7 (VHH) VHH: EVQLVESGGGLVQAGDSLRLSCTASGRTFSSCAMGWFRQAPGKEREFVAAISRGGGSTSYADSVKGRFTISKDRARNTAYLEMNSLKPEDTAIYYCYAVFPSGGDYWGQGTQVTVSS 0.00186

Cool, now Bacillus subtilis-derived VHH-COVE5 (VHH) VHH: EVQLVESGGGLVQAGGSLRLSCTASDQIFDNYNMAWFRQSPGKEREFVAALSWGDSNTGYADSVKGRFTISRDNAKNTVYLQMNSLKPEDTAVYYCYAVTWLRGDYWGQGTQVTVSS 0.00106

Cool, now Bacillus subtilis-derived VHH-COVE2 (VHH) VHH: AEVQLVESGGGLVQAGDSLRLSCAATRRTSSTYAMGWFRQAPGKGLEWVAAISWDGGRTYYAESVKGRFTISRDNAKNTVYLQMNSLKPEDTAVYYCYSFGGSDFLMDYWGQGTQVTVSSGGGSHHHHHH 0.000438
